# Test system: LNCaP cells
# Assay type: cell-based
# Condition label: 48 h
Property name: pEC50
# pEC50: negative log10 of molar concentration; output just the value

Lookup: Please report the measured pEC50 for N.N.[Cl][Pt][Cl] [Cisplatin, cisplatin, reference compound]
Found: 4.52
